# Assay Remarks: Solubility of Compound A free base in solvents
# Format: physicochemical
# Run Conditions: organic solvent or mixture; free base; heptane; read-out: Solubility in heptane
Observable: solubility

Ask | Fill in the blank: the reported solubility of O=C1CN2c3c(cccc3[C@@H]3CN(CCCOc4ccc(F)cc4)CC[C@@H]32)N1 [Compound A] is ____.
Reply | < 11 mg/mL
